Assay name: Oral bioavailability in Sprague-Dawley rat at 10 mg/kg measured over 24 hrs by LC-MS/MS analysis
Format: ADME, organism-based
Condition set: in vivo
Measured property: bioavailability (%)
Give the number; % is assumed, so skip it.

Worked examples follow.
{"Smi": "N[C@@H](Cc1ccccc1)C(=O)N1C[C@@H](CCB(O)O)C[C@](N)(C(=O)O)C1", "Unit label": "%", "Measurement": 18.8}
{"Smi": "N=C(N)NCCC[C@H](N)C(=O)N1C[C@@H](CCB(O)O)C[C@](N)(C(=O)O)C1", "Unit label": "%", "Measurement": 18.8}
{"Smi": "C[C@H](N)C(=O)N1C[C@@H](CCB(O)O)C[C@](N)(C(=O)O)C1", "Unit label": "%", "Measurement": 18.8}
{"Smi": "NCC(=O)N1C[C@@H](CCB(O)O)C[C@](N)(C(=O)O)C1", "Unit label": "%", "Measurement": 18.8}

Now, please, on to the next compound.
Request: Name the recorded bioavailability for C[C@H](N)C(=O)N1C[C@@H](CCB(O)O)C[C@](N)(C(=O)O)[C@@H]1C .
Response: 65.6

Entry source: ChEMBL document CHEMBL5537146
